Consider the following binders and their measured Kd readings.
Biological target: Cyno CD3εδ-Fc (cynomolgus) (UniProt Q95LI8)
Sequence (chain, as listed by the source mutant, chain 1 of 2): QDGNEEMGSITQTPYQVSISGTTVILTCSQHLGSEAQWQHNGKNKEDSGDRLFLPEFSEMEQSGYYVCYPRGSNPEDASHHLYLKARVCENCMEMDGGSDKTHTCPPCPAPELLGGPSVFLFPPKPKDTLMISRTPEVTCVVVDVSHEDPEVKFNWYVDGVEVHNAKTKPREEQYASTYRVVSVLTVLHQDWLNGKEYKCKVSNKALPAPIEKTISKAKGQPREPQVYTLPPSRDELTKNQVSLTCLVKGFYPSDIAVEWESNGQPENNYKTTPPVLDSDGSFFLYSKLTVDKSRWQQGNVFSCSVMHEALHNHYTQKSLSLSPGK
Sequence (Q95LI8 22-105, stated change not applied, chain 2 of 2): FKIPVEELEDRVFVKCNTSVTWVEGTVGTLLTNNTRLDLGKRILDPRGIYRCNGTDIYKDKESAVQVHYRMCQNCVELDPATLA
Assay: KD of scFv-Fc or IgG on cyno CD3εδ-Fc; instrument not given
Report as a plain number; the unit nM is understood.

Please review the entries below; each comes with its answer.
*Q* Requested field: Kd. Item: ADI-45971 (antibody, V domains shown, also called Ab7) VH: QVQLVQSGAEVKKPGATVKVSCKASGFNIKDYYIHWVRQAPGQRLEWIGWIDLENANTVYDAKFQGRVTITRDTSASTAYMELSSLRSEDTAVYYCARDAYGRYFYDVWGQGTLVTVSS VL: DIVMTQSPDSLAVSLGERATINCKSSQSLLNARTRKNYLAWYQQKPGQPPKLLIYWASTRESGVPDRFSGSGSGTDFTLTISSLQAEDVAVYYCVQSYFRRTFGGGTKVEIK
*A* 1.9

*Q* For ADI-45982 (antibody, V domains shown, also called Ab19) VH: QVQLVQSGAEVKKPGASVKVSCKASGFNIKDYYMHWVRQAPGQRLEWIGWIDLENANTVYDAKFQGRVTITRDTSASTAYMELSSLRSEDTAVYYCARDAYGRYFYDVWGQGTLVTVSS VL: DIVMTQSPDSLAVSLGERATINCKSSQSLLNARTGKNYLAWYQQKPGQPPKLLIYWASTRENGVPDRFSGSGSGTDFTLTISSLQAEDVAVYYCTQSYFRRTFGGGTKVEIK , what is its reported Kd?
*A* 1.4

Let us move to another entry and its Kd.
*Q* Fill blank: measured Kd of the binder ADI-45970 (antibody, V domains shown, also called Ab6) VH: QVQLVQSGAEVKKPGASVKVSCKASGFNVKDYYMHWVRQAPGQRLEWIGWIDLENANTVYDAKFQGRVTITRDTSASTAYMELSSLRSEDTAVYYCARDAYGRYFYDVWGQGTLVTVSS VL: DIVMTQSPDSLAVSLGERATINCKSSQSLLNARTGKNYLAWYQQKPGQPPKLLIYWASTRESGVPDRFSGSGSGTDFTLTISSLQAEDVAVYYCKQSYFRRTFGGGTKVEIK is ____.
*A* 1.6
